Tested on: MS2 coat protein
Assay: apparent Kd, MS2 coat protein; higher = weaker binding; RNA-MaP array
Settings: ligand present: flavin mononucleotide; designed as: ON switch for flavin mononucleotide
measured quantity: apparent Kd (nM)

CAUCAGGGAUCAGGAUAUACAAUGGGUACAUGAGGAUCACCCAUGUAGACGCCAACACUGUCAUUGUAGAAGGGAUUGAGCGAA : 29.8
CGACAGCACAUAGGAUAUCAGCAAGAACUAACAUGAGGAUCACCCAUGUAUGGAUGAACAUAAAAUGAGAAGGAAGGCGAAUUA : 17.9
UAACAUUGCUAGAAGGGCGGUCAUCAGAUGGCCGCAGGAUAUAGACAUGAGGAUCACCCAUGUGAAGGGCAGGUUGUUCUAGUU : 22.5
AGGAAAGAAGAAGGAUAUCAGUUACGGACAUGAGGAUCACCCAUGUACGUAGGGUGAACCCUGAUUGAGAAGGUCUGUGUUUUA : 13.4
GGGACACAUGAGGAUCACCCAUGUUGAUGACUUUGAGGAUAUUAGCAAAUUCUGGUCCGCUAAGAAGGCAAGGAAG : 9.82
AGAAUGACAAAAUUGCAACAUGAGGAUCACCCAUGUGAUACAAGAAGGACAAACCGCUCAAGAGUGUAGGAUAUUGUGGAAAUC : 19.6

Each recorded value in this set is attributed to the EternaBench riboswitch data.
